Experiment: qHTS assay to identify small molecule antagonists of the androgen receptor (AR) signaling pathway using the MDA cell line - cell viability counter screen (AID 743041; further: on the % scale 0 is the no-effect control and ±100 the full control effect; nearly all actives have a fitted effect of over 45% in size)
Details: MDA-kb2 viability, CellTiter-Fluor, 16 h, cells co-treated with R1881 androgen agonist; series mostly up to 70.3 µM
Records with an inconclusive call do not appear. The source made the active and inactive calls. The call rests on the fitted dose curve; in most records, active means well fitted cell-killing curve with a large enough effect in the repeat runs; inconclusive means weak or mixed curves, or effect the other way; inactive means flat fitted curve, though single readings scatter.
TEST_READOUT: viability change, negative = cytotoxic

As a guide, the following entries are already answered.
CC(C)[N+](C)(C)CC(O)COc1cccc2ccccc12 (stereo not drawn)	inactive
CC(=O)O[C@H](CC(=O)[O-])C[N+](C)(C)C	inactive
CC(=O)OC(C)(C)C	inactive
CC(C)(O)C(=O)c1ccc(OCCO)cc1	inactive

(Q) // query viability change, negative = cytotoxic value for entry `FC(F)(F)C(F)(F)C(F)(F)C(F)(F)C(F)(F)C(F)(F)C(F)(F)C(F)(F)C(F)(F)C(F)(F)F`
(A) 6.81% [at 8.47 µM] (inactive)

(Q) Report viability change, negative = cytotoxic for `N#CCc1ccccc1[N+](=O)[O-]` please.
(A) inactive

(Q) Reported viability change, negative = cytotoxic for `CC(=O)N[C@@H](CCC(N)=O)C(=O)O` : what is it?
(A) inactive

(Q) For the compound `CCc1cc(S(=O)(=O)O)c2cc(C(C)C)cccc1-2` , what viability change, negative = cytotoxic is on record?
(A) inactive

(Q) I'd like to know its viability change, negative = cytotoxic. The compound in question is `OCc1ccccn1`
(A) inactive

* * *

Test: qHTS assay to identify small molecule agonists of the estrogen related receptor signaling pathway with the pleiotropic PPARgamma coactivator (PGC) from Tox21 10K library (AID 1224842); further: on the % scale 0 is the no-effect control and ±100 the full control effect; nearly all actives have a fitted effect of over 15% in size
Details: PGC/ERR reporter cell line, luciferase ONE-Glo, 18 h; series mostly up to 92.4 µM
Results filed as inconclusive are left out. The source made the active and inactive calls. The call rests on the fitted dose curve; in most records, active means well fitted activation curve with a large enough effect in the repeat runs; inconclusive means weak or mixed curves, or effect the other way; inactive means no such curve, though single readings can be large or run the other way.
Just give me one of these, please: 1 for active, -1 for inactive

Study these solved cases before continuing.
OCc1ccccn1	-1
O=S(=O)(O)c1ccccc1O	-1
COC(=O)C1=C(C)NC(C)=C(C(=O)OCC(C)=O)C1c1ccccc1[N+](=O)[O-] (stereo not drawn)	-1
C#CC(C)(O)CC(C)C (stereo not drawn)	-1
CCCCCCCCCCCCCCC	-1
CCCC(C)C(=O)O (stereo not drawn)	-1

(Q) Per the assay record, what outcome was assigned to `CN(C)C(=O)Nc1ccccc1` ?
(A) -1

(Q) Just curious, what result did `CC(C)c1cccc(C(C)C)c1N` get here?
(A) -1

(Q) Call for entry `CCCCN(CCO)CCO` :
(A) -1

(Q) In this assay, the call recorded for CN1[C@@H]2CC[C@H]1CC(NC(=O)n1c(=O)[nH]c3ccccc31)C2 (stereo partly drawn) was what?
(A) -1

(Q) Entry `CCCCCCC(=O)OCC` : call = ?
(A) -1

(Q) Would you mind telling me which call this test gave `C[C@H]1O[C@@H](n2cc(F)c(=O)[nH]c2=O)[C@H](O)[C@@H]1O` ?
(A) -1

* * *

Target: Aryl hydrocarbon receptor (Homo sapiens)
Test: qHTS assay to identify small molecule that activate the aryl hydrocarbon receptor (AhR) signaling pathway (AID 743085); further: nearly all actives have a fitted effect of over 15% in size;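 on activation: HG2L7.5c1 human HepG2 liver cells with stably integrated DRE-driven firefly reporter; on the % scale 0 is the no-effect control and ±100 the full control effect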
Details: HepG2 AhR-luc (HG2L7.5c1), luciferase, 24 h; series mostly up to 70.3 µM
Results filed as inconclusive are left out. The source made the active and inactive calls. The call rests on the fitted dose curve; in most records, active means well fitted activation curve with a large enough effect in the repeat runs; inconclusive means weak or mixed curves; inactive means no such curve, though single readings can be large or run the other way.
Tick one outcome: active, inactive

CC(CCO)CCCC(C)(C)O (centres undefined)	inactive
COc1ccc(NC(C)=O)cc1	inactive

(Q) // outcome(item) with item = `NCCN1CCNC1=O`
(A) inactive

(Q) Tell me the recorded outcome of this test for CC12CCC(CC1=O)C2(C)C (centres undefined) .
(A) inactive

(Q) Test call, this molecule: O=C(O)C(O)[C@H](O)[C@@H](O)[C@H](O)[C@H](O)CO (some centres undefined)
(A) inactive

(Q) What classification did `CCCCCCOC(=O)CC(CC(=O)OCCCCCC)(OC(=O)CCC)C(=O)OCCCCCC` end up with in this test?
(A) inactive

(Q) How did this test come out for `c1cc(CN2CCCCC2)cc(OCCCNc2nc3ccccc3s2)c1` ?
(A) active

(Q) Hi, do you know how `c1ccc2cnncc2c1` came out in this test?
(A) inactive

(Q) Called result for `C[N+](C)(C)CC[N+]1(C)Cc2c(Cl)c(Cl)c(Cl)c(Cl)c2C1`
(A) inactive

(Q) Any idea what this test logged for `CCCCN(CCO)CCO` ?
(A) inactive

(Q) Could you kindly confirm the outcome this assay logged for `CC(C)(C)N(CCO)CCO` ?
(A) inactive

(Q) Tell me the assay call for `CCCCCOC(=O)Nc1nc(=O)n([C@@H]2O[C@H](C)[C@@H](O)[C@H]2O)cc1F` please.
(A) inactive

(Q) Which outcome was entered for the molecule `O=C(O)c1ccccc1S` in this test?
(A) inactive

(Q) Can you look up the reported call for `OCC(CO)(CO)COCC(CO)(CO)CO` for me?
(A) inactive

(Q) Check the results log: what was the call for COC(C(=O)O)c1ccccc1 (centres undefined) ?
(A) inactive

(Q) Field: outcome | Entry: `COCc1ccc(COC)cc1`
(A) inactive

(Q) Hi, sorry to bother you, what did the test record for `C=C(C)[C@@H]1CCC2=CC(=O)C[C@@H](C)[C@]2(C)C1` ?
(A) inactive

(Q) In this assay, the call recorded for `C(=C(c1ccccc1)c1ccccc1)c1ccccc1` was what?
(A) inactive

(Q) What is the recorded call for this molecule in the test? `CCCCCCOC(=O)c1ccccc1O`
(A) inactive

* * *

Target: Progesterone receptor (Homo sapiens) (UniProt P06401)
Sequence (P06401 whole entry, looked up): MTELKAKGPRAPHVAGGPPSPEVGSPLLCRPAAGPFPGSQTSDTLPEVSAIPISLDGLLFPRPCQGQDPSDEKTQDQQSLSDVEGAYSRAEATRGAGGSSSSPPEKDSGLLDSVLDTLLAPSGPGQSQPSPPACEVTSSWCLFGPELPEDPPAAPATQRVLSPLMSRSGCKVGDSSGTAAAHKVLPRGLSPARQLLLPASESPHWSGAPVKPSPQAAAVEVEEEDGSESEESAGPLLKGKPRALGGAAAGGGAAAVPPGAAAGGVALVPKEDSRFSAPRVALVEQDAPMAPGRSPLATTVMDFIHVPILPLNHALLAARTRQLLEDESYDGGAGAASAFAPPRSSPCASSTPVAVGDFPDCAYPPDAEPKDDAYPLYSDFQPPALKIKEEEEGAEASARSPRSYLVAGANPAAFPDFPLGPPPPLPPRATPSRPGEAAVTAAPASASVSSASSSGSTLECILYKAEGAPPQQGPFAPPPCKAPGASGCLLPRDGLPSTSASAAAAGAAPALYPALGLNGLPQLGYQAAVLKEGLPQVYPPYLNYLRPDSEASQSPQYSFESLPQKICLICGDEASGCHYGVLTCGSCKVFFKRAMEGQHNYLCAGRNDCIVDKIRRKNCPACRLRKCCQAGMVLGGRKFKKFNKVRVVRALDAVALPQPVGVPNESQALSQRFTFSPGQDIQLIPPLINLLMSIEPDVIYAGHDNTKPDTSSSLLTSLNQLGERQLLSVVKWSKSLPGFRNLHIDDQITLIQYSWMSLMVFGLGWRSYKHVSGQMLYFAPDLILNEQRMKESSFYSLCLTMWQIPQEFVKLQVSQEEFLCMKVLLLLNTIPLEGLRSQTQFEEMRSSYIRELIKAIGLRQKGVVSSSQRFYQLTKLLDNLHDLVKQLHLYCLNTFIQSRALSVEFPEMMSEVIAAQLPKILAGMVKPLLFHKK
Assay: qHTS assay to identify small molecule antagonists of the progesterone receptor (PR) signaling pathway (AID 1346795); further: on the % scale 0 is the no-effect control and ±100 the full control effect
Conditions: PR-UAS-bla HEK293T, beta-lactamase FRET ratio, 16 h; series mostly up to 92.4 µM
Inconclusive results are not listed. Activity calls are given as the source filed them. Calls follow the shape of the dose curve; as a rule, active = well fitted inhibition curve with a large enough effect in the signal ratio in the repeat runs (not every such curve was filed as active); inconclusive = weak or mixed curves; inactive = flat fitted curve, though single readings scatter; the % refers to the signal ratio.
Returns: one label drawn from active, inactive

CCC(=O)Nc1cccc(N)c1	inactive
CCCCOCC(C)OCC(C)O (centres undefined)	inactive

(Q) Outcome logged for `NC(=O)c1ncn([C@@H]2O[C@H](CO)[C@@H](O)[C@H]2O)c1O` in this assay:
(A) inactive

* * *

Assay: qHTS assay to identify small molecule antagonists of the thyroid receptor (TR) signaling pathway (AID 743065); further: on the % scale 0 is the no-effect control and ±100 the full control effect; nearly all actives have a fitted effect of over 55% in size
Settings: GH3.TRE-Luc, T3-stimulated luciferase inhibition, 23.5 h; series mostly up to 70.3 µM
Results filed as inconclusive are left out. Calls of active or inactive are those of the source. Calls follow the shape of the dose curve; as a rule, active = well fitted inhibition curve with a large enough effect in the repeat runs; inconclusive = weak or mixed curves; inactive = no such curve, though single readings can be large or run the other way.
TEST_READOUT: outcome

Nc1cc(N)cc(C(=O)O)c1	inactive
CC12CCC(CC1=O)C2(C)C (stereo not drawn)	inactive
OC[C@H]1O[C@@H]2O[C@H]3[C@H](O)[C@@H](O)[C@@H](O[C@H]4[C@H](O)[C@@H](O)[C@@H](O[C@H]5[C@H](O)[C@@H](O)[C@@H](O[C@H]6[C@H](O)[C@@H](O)[C@@H](O[C@H]7[C@H](O)[C@@H](O)[C@@H](O[C@H]8[C@H](O)[C@@H](O)[C@@H](O[C@H]9[C@H](O)[C@@H](O)[C@@H](O[C@H]1[C@H](O)[C@H]2O)O[C@@H]9CO)O[C@@H]8CO)O[C@@H]7CO)O[C@@H]6CO)O[C@@H]5CO)O[C@@H]4CO)O[C@@H]3CO	inactive

* * *

Assay: qHTS assay to identify small molecule HDAC inhibitors - cell viability counter screen (AID 1259365); further: on the % scale 0 is the no-effect control and ±100 the full control effect; nearly all actives have a fitted effect of over 50% in size
Conditions: HCT-116 viability, CellTiter-Glo ATP luminescence, 2 h; series mostly up to 92.4 µM
Activity calls are given as the source filed them. Calls follow the shape of the dose curve; as a rule, active = well fitted cell-killing curve with a large enough effect in the repeat runs; inconclusive = weak or mixed curves, or effect the other way; inactive = flat fitted curve, though single readings scatter.
TEST_READOUT: activity change, negative = cytotoxicity

Example entries begin here.
[O-][N+](=Nc1ccccc1)c1ccccc1	inactive
CC(C)CCOC(=O)CC(C)C	inactive
c1ccc2cnncc2c1	inactive
O=C(O)Cc1cc(I)c(Oc2cc(I)c(O)c(I)c2)c(I)c1	inactive

(Q) activity change, negative = cytotoxicity for `CC1=CC(=O)CCC1` ?
(A) inactive

(Q) // activity change, negative = cytotoxicity lookup, key: `COCCOC(=O)CC#N`
(A) inactive

(Q) So what does the record say about activity change, negative = cytotoxicity for Cc1nccn1CC1CCc2c(c3ccccc3n2C)C1=O (stereo unspecified) ?
(A) inactive

(Q) I have this compound here, `O=c1[nH]c2ccccc2c(=O)n1CCCl` , and I need its recorded activity change, negative = cytotoxicity.
(A) inactive

(Q) Which activity change, negative = cytotoxicity is listed for `NCCN1CCNC1=O` ?
(A) inactive

(Q) I have this compound here, `Cc1onc(-c2ccccc2)c1-c1ccc(S(N)(=O)=O)cc1` , and I need its recorded activity change, negative = cytotoxicity.
(A) inactive

(Q) Fill in the blank: the reported activity change, negative = cytotoxicity of OC1OC[C@@H](O)[C@H](O)[C@H]1O (stereo partly specified) is ____.
(A) inactive

(Q) Fill blank: measured activity change, negative = cytotoxicity of the compound CCCCCCCCCCCCCCCCCCOCC(O)CO (stereo unspecified) is ____.
(A) inactive

(Q) I would be grateful if you could share the reported activity change, negative = cytotoxicity for CC(O)CN(CCCN(C)C)CCCN(C)C (stereo unspecified) .
(A) inactive
